# TESTED_ON: kappa opioid receptor (Homo sapiens, UniProt P41145)
# Sequence (P41145 whole entry): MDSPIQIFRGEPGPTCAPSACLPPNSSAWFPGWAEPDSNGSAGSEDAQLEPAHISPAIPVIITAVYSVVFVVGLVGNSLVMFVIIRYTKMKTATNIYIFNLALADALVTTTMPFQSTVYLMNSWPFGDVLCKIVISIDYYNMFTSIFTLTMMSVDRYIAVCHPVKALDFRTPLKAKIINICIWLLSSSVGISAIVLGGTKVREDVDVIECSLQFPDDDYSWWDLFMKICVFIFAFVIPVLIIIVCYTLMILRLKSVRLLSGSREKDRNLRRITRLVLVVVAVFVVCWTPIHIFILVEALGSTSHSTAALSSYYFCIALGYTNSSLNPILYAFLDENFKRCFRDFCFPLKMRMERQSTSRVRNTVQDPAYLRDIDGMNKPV
# EXPERIMENT_NOTES: biochemical
# Assay type: biochemical
# Set-up: expressed in transfected cells; host or cells: transfected cells
# CONDITION_NOTES: Table 8; read-out: kappa EC50
# Lookup of reported pEC50 keyed by entry
Keep in mind that pEC50 stands for -log10 of concentration in molar terms.

O=C(CC1OC(CO)C(O)C(O)C1O)NC1CCC2(O)C3Cc4ccc(O)c5c4C2(CCN3CC2CC2)C1O5 (stereo not drawn) :: 7.95

Input line: Name the value of pEC50 reported for O=C(C[C@@H]1O[C@H](COCc2ccccc2)[C@@H](OCc2ccccc2)[C@H](OCc2ccccc2)[C@H]1OCc1ccccc1)NC1CC[C@@]2(O)[C@H]3Cc4ccc(O)c5c4[C@@]2(CCN3CC2CC2)[C@H]1O5 (stereo partly drawn) when tested on kappa opioid receptor (Homo sapiens, UniProt P41145).
Output line: 7.97
